- MEASURED TARGET: USP1/UAF1 enzyme (Homo sapiens, UniProt O94782)
- Sequence (O94782 whole entry): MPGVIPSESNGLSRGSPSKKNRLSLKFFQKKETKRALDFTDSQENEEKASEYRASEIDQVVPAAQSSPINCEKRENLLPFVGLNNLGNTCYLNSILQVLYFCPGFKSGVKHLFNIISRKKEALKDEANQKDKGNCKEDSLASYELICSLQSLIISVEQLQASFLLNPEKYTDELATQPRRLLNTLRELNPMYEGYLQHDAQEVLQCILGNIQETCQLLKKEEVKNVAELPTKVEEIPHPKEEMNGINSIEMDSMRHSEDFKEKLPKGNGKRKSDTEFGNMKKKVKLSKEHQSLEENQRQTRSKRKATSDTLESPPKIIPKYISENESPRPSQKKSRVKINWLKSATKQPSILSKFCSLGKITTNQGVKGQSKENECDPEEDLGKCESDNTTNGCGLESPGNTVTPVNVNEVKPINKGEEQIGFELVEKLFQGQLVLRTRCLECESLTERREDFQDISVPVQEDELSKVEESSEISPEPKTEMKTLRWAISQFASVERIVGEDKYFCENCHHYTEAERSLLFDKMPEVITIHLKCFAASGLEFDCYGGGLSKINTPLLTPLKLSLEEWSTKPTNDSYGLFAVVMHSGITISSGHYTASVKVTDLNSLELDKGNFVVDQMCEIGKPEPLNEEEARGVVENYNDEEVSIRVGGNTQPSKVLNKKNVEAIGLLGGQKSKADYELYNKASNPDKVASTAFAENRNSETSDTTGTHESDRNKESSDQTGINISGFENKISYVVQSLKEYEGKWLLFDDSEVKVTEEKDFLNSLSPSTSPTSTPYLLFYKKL
- Sequence (Q8TAF3 whole entry partner): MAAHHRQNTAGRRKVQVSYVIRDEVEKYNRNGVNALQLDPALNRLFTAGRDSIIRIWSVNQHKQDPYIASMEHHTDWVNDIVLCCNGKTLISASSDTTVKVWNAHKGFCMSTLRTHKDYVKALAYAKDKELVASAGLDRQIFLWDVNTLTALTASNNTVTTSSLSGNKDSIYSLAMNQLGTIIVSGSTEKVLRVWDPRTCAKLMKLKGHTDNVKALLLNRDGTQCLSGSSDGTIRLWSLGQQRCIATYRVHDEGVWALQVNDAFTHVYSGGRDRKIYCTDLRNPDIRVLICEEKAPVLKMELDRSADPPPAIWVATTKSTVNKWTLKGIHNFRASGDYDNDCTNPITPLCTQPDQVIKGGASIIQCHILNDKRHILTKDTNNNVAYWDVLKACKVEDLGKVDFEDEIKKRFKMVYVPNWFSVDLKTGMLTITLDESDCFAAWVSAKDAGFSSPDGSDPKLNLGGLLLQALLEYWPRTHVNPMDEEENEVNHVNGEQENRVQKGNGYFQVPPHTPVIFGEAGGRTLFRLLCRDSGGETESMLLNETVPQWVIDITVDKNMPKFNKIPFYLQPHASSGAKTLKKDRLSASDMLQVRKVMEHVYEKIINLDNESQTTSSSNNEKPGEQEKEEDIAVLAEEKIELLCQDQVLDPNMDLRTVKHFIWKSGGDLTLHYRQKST
- ASSAY DETAILS: USP1/UAF1 deubiquitination assay (ubiquitin-rhodamine 110 substrate)
- CONDITIONS: read-out: USP1 IC50 (Ub-Rho)
pIC50: −log10 of the molar value.
REPORTED PROPERTY: pIC50

[in] Lookup: pIC50 / USP1/UAF1 enzyme (Homo sapiens, UniProt O94782) / COc1ncnc(C2CC2)c1-c1cc2n(n1)CC(C)(C)C(=O)N2Cc1ccc(-c2nc(C(F)(F)F)cn2C)cc1
[out] 6.30 to 7.00

[in] Lookup: pIC50 / USP1/UAF1 enzyme (Homo sapiens, UniProt O94782) / Cc1cnn(C(C)C)c1-c1cc2n(n1)CCCN2Cc1ccc(-c2nc(C(F)(F)F)cn2C(C)C)cc1
[out] > 7.00

[in] Lookup: pIC50 / USP1/UAF1 enzyme (Homo sapiens, UniProt O94782) / COc1ncnc(C2CC2)c1-c1cc2n(n1)CCC(=O)N2Cc1ccc(-c2nc(C(F)(F)F)c[nH]2)cc1
[out] 6.30 to 7.00

[in] Lookup: pIC50 / USP1/UAF1 enzyme (Homo sapiens, UniProt O94782) / COc1cccc(C)c1-c1cc2n(n1)CCCN2Cc1ccc(-c2nc(C(F)(F)F)cn2C)cc1
[out] > 7.00

[in] Lookup: pIC50 / USP1/UAF1 enzyme (Homo sapiens, UniProt O94782) / O=C1CCn2nc(-c3c(OC(F)F)ncnc3C3CC3)nc2N1Cc1ccc(-c2nc(C(F)(F)F)cn2CCF)cc1
[out] > 7.00

[in] Lookup: pIC50 / USP1/UAF1 enzyme (Homo sapiens, UniProt O94782) / CCn1cc(C(F)(F)F)nc1-c1ccc(CN2C(=O)[C@@H](C)Cn3nc(-c4c(OC)ncnc4C4CC4)nc32)cc1
[out] > 7.00

[in] Lookup: pIC50 / USP1/UAF1 enzyme (Homo sapiens, UniProt O94782) / Cn1cc(C(F)(F)F)nc1-c1ccc(Cn2c(=O)ccn3nc(-c4c(OC(F)F)ncnc4C4CC4)nc23)cc1F
[out] > 7.00

[in] Lookup: pIC50 / USP1/UAF1 enzyme (Homo sapiens, UniProt O94782) / COc1ncnc(C2CC2)c1-c1cc2n(n1)CCCN2Cc1ccc(-c2nc(C(F)(F)F)cn2C(C)C)cc1
[out] > 7.00

[in] Lookup: pIC50 / USP1/UAF1 enzyme (Homo sapiens, UniProt O94782) / CCn1cc(C(F)(F)F)nc1-c1ccc(CN2C(=O)CCn3nc(-c4c(Cl)cnn4C4(COC)CC4)cc32)cc1
[out] > 7.00

[in] Lookup: pIC50 / USP1/UAF1 enzyme (Homo sapiens, UniProt O94782) / CC(C)n1cc(C(F)(F)F)nc1-c1ccc(CN2C(=O)CCn3nc(-c4c(Cl)cnn4C(C)C)cc32)cc1F
[out] > 7.00

[in] Lookup: pIC50 / USP1/UAF1 enzyme (Homo sapiens, UniProt O94782) / Cc1cnn(C(C)C)c1-c1nn2c(c1Cl)N(Cc1ccc(-c3nc(C(F)(F)F)cn3C)cc1)CCC2
[out] > 7.00

[in] Lookup: pIC50 / USP1/UAF1 enzyme (Homo sapiens, UniProt O94782) / COc1cccnc1-c1ccc(CN2C(=O)CCn3nc(-c4c(OC)ncnc4C4CC4)nc32)cc1F
[out] 6.30 to 7.00

[in] Lookup: pIC50 / USP1/UAF1 enzyme (Homo sapiens, UniProt O94782) / COc1ncnc(C2CC2)c1-c1nc2n(n1)CCC(=O)N2Cc1ccc(-c2nc(C(F)(F)F)cn2C)cc1
[out] > 7.00

----------
- ASSAY DETAILS: Liver microsomal metabolic stability, human liver microsomes (HLM)
- CONDITIONS: human, liver microsomes
Kindly supply the reported half-life at 1 μM values for the records listed here.

[in] What value of half-life at 1 μM has been reported for the following compound? CCn1cc(C(F)(F)F)nc1-c1ccc([C@@H](C)n2c(=O)ccn3nc(-c4c(OC)ncnc4C4CC4)cc23)cc1F [Example 333]
[out] > 25 min

[in] What value of half-life at 1 μM has been reported for the following compound? CCn1cc(C(F)(F)F)nc1-c1ccc([C@H](C)N2C(=O)CCn3nc(-c4c(Cl)cnn4C(C)C)nc32)cc1OC [Example 179]
[out] < 25 min

[in] What value of half-life at 1 μM has been reported for the following compound? CCn1cc(C(F)(F)F)nc1-c1ccc(CN2C(=O)CCn3nc(-c4c(Cl)cnn4C(C)C)cc32)cn1 [Example 111]
[out] > 25 min

[in] What value of half-life at 1 μM has been reported for the following compound? CCn1cc(C(F)(F)F)nc1-c1ccc(CN2CC(N)Cn3nc(-c4c(Cl)cnn4C(C)C)cc32)cc1F (stereo not shown) [Example 353]
[out] < 25 min

[in] What value of half-life at 1 μM has been reported for the following compound? CCn1cc(C(F)(F)F)nc1-c1ccc(CN2C(=O)CCn3nc(-c4c(Cl)cnn4[C@@H](C)COC)cc32)cc1F [Example 132]
[out] < 25 min

[in] What value of half-life at 1 μM has been reported for the following compound? CCn1cc(C(F)(F)F)nc1-c1ccc([C@H](C)N2C(=O)CCn3nc(-c4c(OC)ncnc4C4CC4)nc32)cc1Cl [Example 211]
[out] > 25 min

[in] What value of half-life at 1 μM has been reported for the following compound? CCOc1cccnc1-c1ccc(CN2C(=O)CCn3nc(-c4c(Cl)cnn4C(C)C)cc32)cc1Cl [Example 307]
[out] < 25 min

[in] What value of half-life at 1 μM has been reported for the following compound? COc1ncnc(C2CC2)c1-c1cc2n(n1)CCCN2Cc1ccc(-c2nc(C(F)(F)F)cn2C(C)C)c(F)c1 [Example 63]
[out] < 25 min

[in] What value of half-life at 1 μM has been reported for the following compound? CCOc1cc(C(F)(F)F)nn1-c1ccc(CN2C(=O)CCn3nc(-c4c(Cl)cnn4C(C)C)cc32)cc1 [Example 115]
[out] > 25 min

[in] What value of half-life at 1 μM has been reported for the following compound? CCn1cc(C(F)(F)F)nc1-c1ccc([C@@H](C)N2CCCn3nc(-c4c(Cl)cnn4C(C)C)cc32)cc1 (single isomer, unassigned) [Example 68]
[out] < 25 min

----------
- MEASURED TARGET: USP1/UAF1 enzyme (Homo sapiens, UniProt O94782)
- ASSAY DETAILS: USP1/UAF1 deubiquitination assay (ubiquitin-rhodamine 110 substrate)
- CONDITIONS: read-out: USP1 IC50 (Ub-Rho)
REPORTED PROPERTY: IC50

[in] Lookup: IC50 / USP1/UAF1 enzyme (Homo sapiens, UniProt O94782) / CCn1cc(C(F)(F)F)nc1-c1ccc(O[C@@H]2CCCn3nc(-c4c(OC)ncnc4C4CC4)cc32)cc1F (single isomer, unassigned) [Example 264]
[out] < 0.1 µM

[in] Lookup: IC50 / USP1/UAF1 enzyme (Homo sapiens, UniProt O94782) / CC(C)n1ncc(Cl)c1-c1cc2n(n1)CCCN2Cc1ccc(-c2nc(C(F)(F)F)cn2CCF)cc1 [Example 62]
[out] < 0.1 µM

[in] Lookup: IC50 / USP1/UAF1 enzyme (Homo sapiens, UniProt O94782) / CCn1cc(C(F)(F)F)nc1-c1ccc(CN2C(=O)CCn3nc(-c4c(C5CC5)ccnc4OC(F)F)nc32)cc1 [Example 373]
[out] 0.1 to 0.5 µM

[in] Lookup: IC50 / USP1/UAF1 enzyme (Homo sapiens, UniProt O94782) / Cc1cnn(C(C)C)c1-c1cc2n(n1)CCC(=O)N2Cc1ccc(-c2nc(C(F)(F)F)cn2C(C)C)cc1 [Example 73]
[out] < 0.1 µM

[in] Lookup: IC50 / USP1/UAF1 enzyme (Homo sapiens, UniProt O94782) / COc1ccc(-c2ccc(CN3C(=O)CCn4nc(-c5c(Cl)cnn5C(C)C)cc43)cc2Cl)nc1 [Example 285]
[out] > 0.5 µM

[in] Lookup: IC50 / USP1/UAF1 enzyme (Homo sapiens, UniProt O94782) / CCn1cc(C(F)(F)F)nc1-c1ccc(NC2CCCn3nc(-c4c(Cl)cnn4C(C)C)nc32)cc1F (stereo not shown) [Example 257]
[out] 0.1 to 0.5 µM

[in] Lookup: IC50 / USP1/UAF1 enzyme (Homo sapiens, UniProt O94782) / COc1cc(CN2C(=O)CCn3nc(-c4c(OC)ncnc4C4CC4)cc32)ccc1-c1nc(C(F)(F)F)cn1C(C)C [Example 108]
[out] < 0.1 µM

----------
Kindly supply the reported solubility at 24 h values for the records listed here.
- ASSAY DETAILS: ADME solubility determination in PBS at pH 2.0 and pH 7.4
- Format: physicochemical
- CONDITIONS: phosphate buffered saline, 25 °C, pH 7.4, aqueous buffer, thermodynamic from solid, PBS pH 7.4, 25° C., read-out: Solubility at pH 7.4

[in] What value of solubility at 24 h has been reported for the following molecule? COc1ncnc(C2CC2)c1-c1cc2n(n1)CCC(=O)N2Cc1ccc(-n2nc(C(F)(F)F)cc2C)cc1
[out] < 10 µM

[in] What value of solubility at 24 h has been reported for the following molecule? COc1ncnc(C2CC2)c1-c1cc2n(n1)CCC(=O)N2Cc1ccc(-n2nc(C(F)(F)F)cc2C)c(F)c1
[out] < 10 µM

[in] What value of solubility at 24 h has been reported for the following molecule? COc1ncnc(C2CC2)c1-c1cc2n(n1)CCC(=O)N2Cc1ccc(-c2nc(C(F)(F)F)cn2C)c(F)c1
[out] < 10 µM

[in] What value of solubility at 24 h has been reported for the following molecule? CCn1cc(C(F)(F)F)nc1-c1ccc(CC2c3cc(-c4c(Cl)cnn4C(C)C)nn3CCN2C)cc1 (centres unmarked)
[out] < 10 µM

[in] What value of solubility at 24 h has been reported for the following molecule? CCn1cc(C(F)(F)F)nc1-c1c(F)cc(CN2C(=O)CCn3nc(-c4c(OC)ncnc4C4CC4)cc32)cc1OC
[out] < 10 µM
